These data points were gathered from ChEMBL document CHEMBL3739278.

# PROTOCOL_NOTES: Antiproliferative activity against human MGC803 cells assessed as cell growth inhibition after 48 hrs by MTT assay
# Type: functional, cell-based
# ASSAY_CONTEXT: MGC-803, 48 h
Criterion: IC50 strictly less than 5 µM. Met: yes. Not met: no.

Some entries whose results are on file:
>  <SUBSTANCE_SMILES>
Cc1ccc(NC(=O)NC(=O)c2ccc(OCc3ccccc3F)cc2)cc1-c1nc2ccccc2[nH]1

>  <CLASS_NAME>
yes

$$$$
>  <SUBSTANCE_SMILES>
Cc1ccc(NC(=O)NC(=O)c2ccc(OCc3cccc(F)c3)cc2)cc1-c1nc2ccccc2[nH]1

>  <CLASS_NAME>
no

$$$$

Identify whether the molecule Cc1ccc(NC(=S)NC(=O)c2ccc(OCc3ccccc3)cc2)cc1-c1nc2ccccc2[nH]1 records IC50 below 5 µM. no

Identify whether the molecule Cc1ccc(NC(=O)NC(=O)c2ccc(OCc3ccc(Cl)c(Cl)c3)cc2)cc1-c1nc2ccccc2[nH]1 records IC50 below 5 µM. no

Identify whether the molecule Cc1ccc(NC(=S)NC(=O)c2ccc(OCc3cccc(Cl)c3)cc2)cc1-c1nc2ccccc2[nH]1 records IC50 below 5 µM. no

Identify whether the molecule Cc1ccc(NC(=O)NC(=O)c2ccc(OCc3ccc(F)cc3)cc2)cc1-c1nc2ccccc2[nH]1 records IC50 below 5 µM. yes

Identify whether the molecule Cc1ccc(NC(=S)NC(=O)c2ccc(OCc3cccc(C(F)(F)F)c3)cc2)cc1-c1nc2ccccc2[nH]1 records IC50 below 5 µM. no

Identify whether the molecule Cc1ccc(NC(=S)NC(=O)c2ccc(OCc3ccccc3Cl)cc2)cc1-c1nc2ccccc2[nH]1 records IC50 below 5 µM. no
